test system: HeLa Kyoto; experiment: melting temperature (median over replicates), in situ; higher = more thermally stable; details: cell cycle stage: mitosis
Kindly state melting temperature for each of the entries shown.
Answers are plain numbers, in °C.

Look up melting temperature for the entries below, preserving their order.
1. MAAPQDVHVRICNQEIVKFDLEVKALIQDIRDCSGPLSALTELNTKVKEKFQQLRHRIQDLEQLAKEQDKESEKQLLLQEVENHKKQMLSNQASWRKANLTCKIAIDNLEKAELLQGGDLLRQRKTTKESLAQTSSTITESLMGISRMMAQQVQQSEEAMQSLVTSSRTILDANEEFKSMSGTIQLGRKLITKYNRRELTDKLLIFLALALFLATVLYIVKKRLFPFL [BNIP1]
2. MIRNGRGAAGGAEQPGPGGRRAVRVWCDGCYDMVHYGHSNQLRQARAMGDYLIVGVHTDEEIAKHKGPPVFTQEERYKMVQAIKWVDEVVPAAPYVTTLETLDKYNCDFCVHGNDITLTVDGRDTYEEVKQAGRYRECKRTQGVSTTDLVGRMLLVTKAHHSSQEMSSEYREYADSFGKCPGGRNPWTGVSQFLQTSQKIIQFASGKEPQPGETVIYVAGAFDLFHIGHVDFLEKVHRLAERPYIIAGLHFDQEVNHYKGKNYPIMNLHERTLSVLACRYVSEVVIGAPYAVTAELLSHFKVDLVCHGKTEIIPDRDGSDPYQEPKRRGIFRQIDSGSNLTTDLIVQRIITNRLEYEARNQKKEAKELAFLEAARQQAAQPLGERDGDF [PCYT2]
3. MAESPTEEAATAGAGAAGPGASSVAGVVGVSGSGGGFGPPFLPDVWAAAAAAGGAGGPGSGLAPLPGLPPSAAAHGAALLSHWDPTLSSDWDGERTAPQCLLRIKRDIMSIYKEPPPGMFVVPDTVDMTKIHALITGPFDTPYEGGFFLFVFRCPPDYPIHPPRVKLMTTGNNTVRFNPNFYRNGKVCLSILGTWTGPAWSPAQSISSVLISIQSLMTENPYHNEPGFEQERHPGDSKNYNECIRHETIRVAVCDMMEGKCPCPEPLRGVMEKSFLEYYDFYEVACKDRLHLQGQTMQDPFGEKRGHFDYQSLLMRLGLIRQKVLERLHNENAEMDSDSSSSGTETDLHGSLRV [UBE2Z]
4. MMKLKSNQTRTYDGDGYKKRAACLCFRSESEEEVLLVSSSRHPDRWIVPGGGMEPEEEPSVAAVREVCEEAGVKGTLGRLVGIFENQERKHRTYVYVLIVTEVLEDWEDSVNIGRKREWFKIEDAIKVLQYHKPVQASYFETLRQGYSANNGTPVVATTYSVSAQSSMSGIR [NUDT3]

Response:
51.7
54.9
52.8
54.7

Prompt: Consider the sequence MPGRAPLRTVPGALGAWLLGGLWAWTLCGLCSLGAVGAPRPCQAPQQWEGRQVMYQQSSGRNSRALLSYDGLNQRVRVLDERKALIPCKRLFEYILLYKDGVMFQIDQATKQCSKMTLTQPWDPLDIPQNSTFEDQYSIGGPQEQITVQEWSDRKSARSYETWIGIYTVKDCYPVQETFTINYSVILSTRFFDIQLGIKDPSVFTPPSTCQMAQLEKMSEDCSW [EPDR1] and give its measured melting temperature.
Response: 55

###

Exercise: state measured thermal stability score for each of the sequences provided.
test system: HeLa Kyoto; experiment: thermal stability score vs G1/S (z-score of summed log2 fold changes over temperatures); higher = more thermally stable than in G1/S; details: cell cycle stage: mitosis
Give bare numbers.

SEQUENCE RECORD	TESTED SYSTEM	OBSERVED MEASUREMENT
MAAQSAPKVVLKSTTKMSLNERFTNMLKNKQPTPVNIRASMQQQQQLASARNRRLAQQMENRPSVQAALKLKQSLKQRLGKSNIQARLGRPIGALARGAIGGRGLPIIQRGLPRGGLRGGRATRTLLRGGMSLRGQNLLRGGRAVAPRMGLRRGGVRGRGGPGRGGLGRGAMGRGGIGGRGRGMIGRGRGGFGGRGRGRGRGRGALARPVLTKEQLDNQLDAYMSKTKGHLDAELDAYMAQTDPETND [CHTOP]	HeLa Kyoto	-0.126
MEGISNFKTPSKLSEKKKSVLCSTPTINIPASPFMQKLGFGTGVNVYLMKRSPRGLSHSPWAVKKINPICNDHYRSVYQKRLMDEAKILKSLHHPNIVGYRAFTEANDGSLCLAMEYGGEKSLNDLIEERYKASQDPFPAAIILKVALNMARGLKYLHQEKKLLHGDIKSSNVVIKGDFETIKICDVGVSLPLDENMTVTDPEACYIGTEPWKPKEAVEENGVITDKADIFAFGLTLWEMMTLSIPHINLSNDDDDEDKTFDESDFDDEAYYAALGTRPPINMEELDESYQKVIELFSVCTNEDPKDRPSAAHIVEALETDV [PBK]	HeLa Kyoto	3.4
MSELEQLRQEAEQLRNQIQDARKACNDATLVQITSNMDSVGRIQMRTRRTLRGHLAKIYAMHWGYDSRLLVSASQDGKLIIWDSYTTNKMHAIPLRSSWVMTCAYAPSGNYVACGGLDNICSIYNLKTREGNVRVSRELPGHTGYLSCCRFLDDSQIVTSSGDTTCALWDIETAQQTTTFTGHSGDVMSLSLSPDMRTFVSGACDASSKLWDIRDGMCRQSFTGHVSDINAVSFFPNGYAFATGSDDATCRLFDLRADQELLLYSHDNIICGITSVAFSKSGRLLLAGYDDFNCNVWDTLKGDRAGVLAGHDNRVSCLGVTDDGMAVATGSWDSFLRIWN [GNB4]	HeLa Kyoto	-0.567
MVKQIESKTAFQEALDAAGDKLVVVDFSATWCGPCKMIKPFFHSLSEKYSNVIFLEVDVDDCQDVASECEVKCMPTFQFFKKGQKVGEFSGANKEKLEATINELV [TXN]	HeLa Kyoto	-2.72

I need thermal stability score for every entry listed below, if you could help.
1. MAAAAAAGEARRVLVYGGRGALGSRCVQAFRARNWWVASVDVVENEEASASIIVKMTDSFTEQADQVTAEVGKLLGEEKVDAILCVAGGWAGGNAKSKSLFKNCDLMWKQSIWTSTISSHLATKHLKEGGLLTLAGAKAALDGTPGMIGYGMAKGAVHQLCQSLAGKNSGMPPGAAAIAVLPVTLDTPMNRKSMPEADFSSWTPLEFLVETFHDWITGKNRPSSGSLIQVVTTEGRTELTPAYF [QDPR]
2. MAAAGGGGGGAAAAGRAYSFKVVLLGEGCVGKTSLVLRYCENKFNDKHITTLQASFLTKKLNIGGKRVNLAIWDTAGQERFHALGPIYYRDSNGAILVYDITDEDSFQKVKNWVKELRKMLGNEICLCIVGNKIDLEKERHVSIQEAESYAESVGAKHYHTSAKQNKGIEELFLDLCKRMIETAQVDERAKGNGSSQPGTARRGVQIIDDEPQAQTSGGGCCSSG [RAB21]
3. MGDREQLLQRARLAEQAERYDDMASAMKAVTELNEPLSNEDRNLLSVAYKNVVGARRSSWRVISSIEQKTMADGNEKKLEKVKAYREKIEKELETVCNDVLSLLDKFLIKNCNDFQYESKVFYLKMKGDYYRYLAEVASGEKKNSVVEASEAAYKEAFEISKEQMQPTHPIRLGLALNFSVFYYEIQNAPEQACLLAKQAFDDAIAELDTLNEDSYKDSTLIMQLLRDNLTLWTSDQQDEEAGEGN [YWHAH]

Response:
[-0.994, -1.92, -1.58]

Give one value of thermal stability score per listed sequence.
1. MDTPLRRSRRLGGLRPESPESLTSVSRTRRALVEFESNPEETREPGSPPSVQRAGLGSPERPPKTSPGSPRLQQGAGLESPQGQPEPGAASPQRQQDLHLESPQRQPEYSPESPRCQPKPSEEAPKCSQDQGVLASELAQNKEELTPGAPQHQLPPVPGSPEPYPGQQAPGPEPSQPLLELTPRAPGSPRGQHEPSKPPPAGETVTGGFGAKKRKGSSSQAPASKKLNKEELPVIPKGKPKSGRVWKDRSKKRFSQMLQDKPLRTSWQRKMKERQERKLAKDFARHLEEEKERRRQEKKQRRAENLKRRLENERKAEVVQVIRNPAKLKRAKKKQLRSIEKRDTLALLQKQPPQQPAAKI [CCDC86]
2. MTDQAFVTLTTNDAYAKGALVLGSSLKQHRTTRRLVVLATPQVSDSMRKVLETVFDEVIMVDVLDSGDSAHLTLMKRPELGVTLTKLHCWSLTQYSKCVFMDADTLVLANIDDLFDREELSAAPDPGWPDCFNSGVFVYQPSVETYNQLLHLASEQGSFDGGDQGILNTFFSSWATTDIRKHLPFIYNLSSISIYSYLPAFKVFGASAKVVHFLGRVKPWNYTYDPKTKSVKSEAHDPNMTHPEFLILWWNIFTTNVLPLLQQFGLVKDTCSYVNVLSDLVYTLAFSCGFCRKEDVSGAISHLSLGEIPAMAQPFVSSEERKERWEQGQADYMGADSFDNIKRKLDTYLQ [GYG1]
3. MGLLAFLKTQFVLHLLVGFVFVVSGLVINFVQLCTLALWPVSKQLYRRLNCRLAYSLWSQLVMLLEWWSCTECTLFTDQATVERFGKEHAVIILNHNFEIDFLCGWTMCERFGVLGSSKVLAKKELLYVPLIGWTWYFLEIVFCKRKWEEDRDTVVEGLRRLSDYPEYMWFLLYCEGTRFTETKHRVSMEVAAAKGLPVLKYHLLPRTKGFTTAVKCLRGTVAAVYDVTLNFRGNKNPSLLGILYGKKYEADMCVRRFPLEDIPLDEKEAAQWLHKLYQEKDALQEIYNQKGMFPGEQFKPARRPWTLLNFLSWATILLSPLFSFVLGVFASGSPLLILTFLGFVGAASFGVRRLIGVTEIEKGSSYGNQEFKKKE [AGPAT3]

Response:
[-4.77, -5.58, -1.45]
